Source of measurements: patent US9670227B2

Biological target: Mcl-1 protein (UniProtKB primary accession number: Q07820) (Homo sapiens, UniProt Q07820)
Sequence (Q07820 whole entry): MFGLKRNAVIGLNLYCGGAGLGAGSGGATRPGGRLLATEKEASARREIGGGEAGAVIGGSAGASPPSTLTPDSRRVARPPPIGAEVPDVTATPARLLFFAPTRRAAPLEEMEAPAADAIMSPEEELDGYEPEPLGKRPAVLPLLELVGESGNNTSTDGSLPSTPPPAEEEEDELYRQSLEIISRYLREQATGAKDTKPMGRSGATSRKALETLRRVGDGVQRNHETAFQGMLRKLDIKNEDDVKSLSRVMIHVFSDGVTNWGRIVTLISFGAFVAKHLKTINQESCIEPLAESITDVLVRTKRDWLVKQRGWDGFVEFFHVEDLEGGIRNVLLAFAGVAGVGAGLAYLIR
Experiment: Inhibition of Mcl-1 by fluorescence polarisation, Method 1
Type: binding
Settings: fluorescence polarisation test; Method 2 values are underlined in the patent (underlining not visible here); read-out: IC50 (M) Mcl-1 FP
Answer each item with its documented IC50.
A number alone suffices; assume M.

Q: Quote IC50 reported for COc1ccccc1CC(Oc1ncnc2sc(-c3ccco3)c(-c3ccc(OCC[N+]4([O-])CC[N+](C)([O-])CC4)c(Cl)c3C)c12)C(=O)O (stereo not drawn) please.
Result: 6.6e-09

Q: # return recorded IC50 for entry Cc1c(-c2c(-c3ccc(F)cc3)sc3ncnc(OC(Cc4ccccc4OCc4ccnc(-c5ccncc5)n4)C(=O)O)c23)ccc(OCCN(C)C)c1Cl (stereo not drawn)
Result: 4e-09

Q: Give the value of IC50 reported for the following: COc1ccccc1CC(Oc1ncnc2sc(-c3ccco3)c(-c3ccc(OCCN4CC[N+](C)([O-])CC4)c(Cl)c3C)c12)C(=O)O (stereo not drawn)
Result: 9.3e-09

Q: Report IC50 for C#CCOc1ccccc1CC(Oc1ncnc2sc(-c3ccco3)c(-c3ccc(OCCN4CCN(C)CC4)c(Cl)c3C)c12)C(=O)O (stereo not drawn)
Result: 8.5e-09

Q: Tell us which IC50 value is on record for Cc1c(-c2c(-c3ccco3)sc3ncnc(O[C@H](Cc4ccccc4OCc4cc(-c5ccccc5)ncn4)C(=O)O)c23)ccc(OCCN2CCN(C)CC2)c1Cl
Result: 3.7e-09

Q: Identify the reported IC50 for the following entry. Cc1c(-c2c(-c3ccco3)sc3ncnc(OC(Cc4ccccc4OCc4ccccn4)C(=O)O)c23)ccc(OCCN2CCN(C)CC2)c1Cl (stereo not drawn)
Result: 5.5e-09

Q: Give IC50 for Cc1c(-c2c(-c3ccco3)sc3ncnc(OC(Cc4ccccc4OCc4ccnc(OCc5ccccc5)n4)C(=O)O)c23)ccc(OCCN2CCN(C)CC2)c1Cl (stereo not drawn)
Result: 5e-09

Q: Identify measured IC50 associated with Cc1c(-c2c(-c3ccco3)sc3ncnc(OC(Cc4ccccc4OCCOc4ccccc4)C(=O)O)c23)ccc(OCCN2CCN(C)CC2)c1Cl (stereo not drawn)
Result: 3.8e-08

Q: Please give the documented IC50 of Cc1c(-c2c(-c3ccc(F)cc3)sc3ncnc(OC(Cc4ccccc4OCc4ccnc(N5CCOCC5)n4)C(=O)O)c23)ccc(OCCN(C)C)c1Cl (stereo not drawn)
Result: 2.2e-09

Q: Check the records and state IC50 for Cc1c(-c2c(-c3ccc(F)cc3)sc3ncnc(OC(Cc4ccccc4OCc4ccnn4CCN(C)C)C(=O)O)c23)ccc(OCCN2CCN(C)CC2)c1Cl (stereo not drawn)
Result: 7e-09

Q: Return reported IC50. Input compound: CCOc1cccc(COc2ccccc2CC(Oc2ncnc3sc(-c4ccc(F)cc4)c(-c4ccc(OCCN5CCN(C)CC5)c(Cl)c4C)c23)C(=O)O)n1 (stereo not drawn)
Result: 2.2e-08

Q: Give IC50 for Cc1c(-c2c(-c3ccco3)sc3ncnc(OC(Cc4ccccc4OCc4ccc(F)cn4)C(=O)O)c23)ccc(OCCN2CCN(C)CC2)c1Cl (stereo not drawn)
Result: 9e-09

* * *

Assignment: determine reported IC50 for the given compounds.
Molecular target: Mcl-1 protein (UniProtKB primary accession number: Q07820) (Homo sapiens, UniProt Q07820)
Experiment: Inhibition of Mcl-1 by fluorescence polarisation, Method 1
Format: binding
Conditions: fluorescence polarisation test; Method 2 values are underlined in the patent (underlining not visible here); read-out: IC50 (M) Mcl-1 FP
State the value with its unit after it.

Q: Look up IC50 of Cc1c(-c2c(-c3ccco3)sc3ncnc(OC(Cc4ccccc4OCC(=O)N(C)C)C(=O)O)c23)ccc(OCCN2CCN(C)CC2)c1Cl (stereo not drawn) [Example 217] and report it.
Result: 5.3e-09 M

Q: Please indicate IC50 recorded for Cc1nccc(COc2ccccc2CC(Oc2ncnc3sc(-c4ccco4)c(-c4ccc(OCCN5CCN(C)CC5)c(Cl)c4C)c23)C(=O)O)n1 (stereo not drawn) [Example 247]
Result: 8e-09 M

Q: Give reported IC50 value for CCn1nccc1COc1ccccc1CC(Oc1ncnc2sc(-c3ccc(F)o3)c(-c3ccc(OCCN4CCN(C)CC4)c(Cl)c3C)c12)C(=O)O (stereo not drawn) [Example 184]
Result: 6e-09 M

Q: Please list IC50 recorded for the compound Cc1c(-c2c(-c3ccc(F)cc3)sc3ncnc(OC(Cc4ccccc4OCc4cocn4)C(=O)O)c23)ccc(OCCN2CCN(C)CC2)c1Cl (stereo not drawn) [Example 98]
Result: 3.3e-07 M

Q: Provide measured IC50 value, entry: Cc1c(-c2c(-c3ccc(Cl)o3)sc3ncnc(OC(Cc4ccccc4OCc4cncnc4)C(=O)O)c23)ccc(OCCN2CCN(C)CC2)c1Cl (stereo not drawn) [Example 375]
Result: 5.6e-09 M

Q: Assign IC50 to the following record: COc1cc(-c2sc3ncnc(OC(Cc4ccccc4OCc4ccnc(C(F)(F)F)n4)C(=O)O)c3c2-c2ccc(OCCN3CCN(C)CC3)c(Cl)c2C)ccc1F (stereo not drawn) [Example 382]
Result: 7.1e-09 M

Q: # return recorded IC50 for input Cc1c(-c2c(-c3ccc(F)cc3)sc3ncnc(OC(Cc4ccccc4OCc4cccc(N5CCOCC5)n4)C(=O)O)c23)ccc(OCCN2CCN(C)CC2)c1Cl (stereo not drawn) [Example 12]
Result: 1.6e-08 M

Q: For the compound COc1nccc(COc2ccccc2CC(Oc2ncnc3sc(-c4ccc(F)o4)c(-c4ccc(OCCN5CCN(C)CC5)c(Cl)c4C)c23)C(=O)O)n1 (stereo not drawn) [Example 176] , report IC50.
Result: 3.1e-09 M

Q: Consider the compound Cc1c(-c2c(-c3ccc(F)cc3)sc3ncnc(OC(Cc4ccccc4OCc4cncn4C)C(=O)O)c23)ccc(OCCN2CCN(C)CC2)c1Cl (stereo not drawn) [Example 92] and give its recorded IC50.
Result: 1.2e-08 M

Q: For the compound Cc1c(-c2c(-c3ccc(F)o3)sc3ncnc(OC(Cc4ccccc4OCc4ccnn4C(C)C)C(=O)O)c23)ccc(OCCN2CCN(C)CC2)c1Cl (stereo not drawn) [Example 182] , give its reported IC50.
Result: 4.4e-09 M

Q: Give a short answer stating reported IC50 for COc1c(C)cccc1CC(Oc1ncnc2sc(-c3ccco3)c(-c3ccc(OCCN4CCN(C)CC4)c(Cl)c3C)c12)C(=O)O (stereo not drawn) [Example 351] .
Result: 1.5e-08 M

Q: Supply IC50 value. Item: COCCn1nccc1COc1ccccc1CC(Oc1ncnc2sc(-c3ccc(F)cc3)c(-c3ccc(OCCN4CCN(C)CC4)c(Cl)c3C)c12)C(=O)O (stereo not drawn) [Example 88]
Result: 4.2e-09 M
